Molecular target: endogenously expressed TGR5 in NCI H716 (Homo sapiens, UniProt Q8TDU6)
Construct: human caecum carcinoma cell line NCI-H716 which endogenously expresses human TGR5; endogenous in cells; host or cells: NCI-H716
Sequence (Q8TDU6 1-330): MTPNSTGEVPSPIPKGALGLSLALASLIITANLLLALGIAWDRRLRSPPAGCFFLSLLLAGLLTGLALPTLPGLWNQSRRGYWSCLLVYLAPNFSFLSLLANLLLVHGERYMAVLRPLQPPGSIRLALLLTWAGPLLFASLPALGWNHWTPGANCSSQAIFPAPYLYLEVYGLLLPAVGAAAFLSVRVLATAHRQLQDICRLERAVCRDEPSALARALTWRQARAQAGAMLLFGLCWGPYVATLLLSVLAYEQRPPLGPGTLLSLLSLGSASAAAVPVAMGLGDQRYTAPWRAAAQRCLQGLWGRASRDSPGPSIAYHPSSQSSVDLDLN
Experiment: Cell-based TGR5 assay, NCI-H716 cells endogenously expressing human TGR5, cAMP by HTRF
Settings: 30 min at 37 C, 22 nM to 50 μM, read-out: pEC50 endogenously expressed TGR5 in NCI H716 (converted)
assay-readout: EC50

Before answering, review these 10 worked examples.
>>> observed_measurement("O=C(N1CCN(C2CC2)c2ccccc21)C1(NCc2cc(Cl)ccc2Cl)CCC1 [Example 56]")
"< 100 nM"
>>> observed_measurement("COc1ccc(COC2(C(=O)N3CCN(C4CC4)c4ccccc43)CC2)c(Cl)c1 [Example 246]")
"1260 to 50100 nM"
>>> observed_measurement("O=C(O)CCc1ccc(Cl)c(CNC2(C(=O)N3CCN(C4CC4)c4ccccc43)CC2)c1 [Example 59]")
"1260 to 50100 nM"
>>> observed_measurement("O=C(N1CCN(C2CC2)c2ccccc21)C1(OCc2cc(Cl)ccc2Cl)CCCCC1 [Example 242]")
"> 50100 nM"
>>> observed_measurement("O=C([C@@H]1CCCN1Cc1c(Cl)cccc1Cl)N1CCN(C2CC2)c2ccccc21 [Example 47]")
"1260 to 50100 nM"
>>> observed_measurement("O=C(N1CCN(C2CC2)c2ccccc21)C1(OCc2cc(Cl)ccc2Cl)CCOCC1 [Example 79]")
"1260 to 50100 nM"
>>> observed_measurement("CC(C)(COc1cc(Cl)ccc1Cl)C(=O)N1CCN(C2CC2)c2ccccc21 [Example 31]")
"126 to 1000 nM"
>>> observed_measurement("O=C([C@@H]1CCCN1Cc1cc(Cl)cc(OC(F)(F)F)c1)N1CCN(C2CC2)c2ccccc21 [Example 74]")
"> 50100 nM"
>>> observed_measurement("O=C(C1CCN(Cc2cc(Cl)ccc2Cl)C1)N1CCN(C2CC2)c2ccccc21 (centres unmarked) [Example 57]")
"1260 to 50100 nM"
>>> observed_measurement("O=C(N1CCN(C2CC2)c2ccccc21)C1(NCc2cc(Cl)ccc2C(F)(F)F)CC1 [Example 254]")
"< 100 nM"

In: # lookup: endogenously expressed TGR5 in NCI H716 (Homo sapiens, UniProt Q8TDU6) EC50, key = O=C(c1cccc(=O)n1Cc1cc(Cl)ccc1Cl)N1CCN(C2CC2)c2ccccc21 [Example 64]
Out: 1260 to 50100 nM

In: # lookup: endogenously expressed TGR5 in NCI H716 (Homo sapiens, UniProt Q8TDU6) EC50, key = CC(C)(OCc1cc(Cl)ccc1Cl)C(=O)N1CCN(C2CC2)c2ccccc21 [Example 1]
Out: 126 to 1000 nM

In: # lookup: endogenously expressed TGR5 in NCI H716 (Homo sapiens, UniProt Q8TDU6) EC50, key = CN(C[C@H](O)[C@@H](O)[C@H](O)[C@H](O)CO)C(=O)NCCCCc1ccc(Cl)c(CNC2(C(=O)N3CCN(C4CC4)c4ccccc43)CC2)c1 [Example 213]
Out: 1260 to 50100 nM

In: # lookup: endogenously expressed TGR5 in NCI H716 (Homo sapiens, UniProt Q8TDU6) EC50, key = Cc1ccc(Cl)c(COC2(C(=O)N3CCN(C4CC4)c4ccccc43)CC2)c1F [Example 249]
Out: 1260 to 50100 nM

In: # lookup: endogenously expressed TGR5 in NCI H716 (Homo sapiens, UniProt Q8TDU6) EC50, key = O=C(N1CCN(C2CC2)c2ccccc21)C1(OCc2cc(Cl)ccc2C(F)(F)F)CC1 [Example 42]
Out: 126 to 1000 nM

In: # lookup: endogenously expressed TGR5 in NCI H716 (Homo sapiens, UniProt Q8TDU6) EC50, key = O=C(c1nccn1Cc1cc(Cl)ccc1Cl)N1CCN(C2CC2)c2ccccc21 [Example 62]
Out: 1260 to 50100 nM

In: # lookup: endogenously expressed TGR5 in NCI H716 (Homo sapiens, UniProt Q8TDU6) EC50, key = O=C(N1CCN(C2CC2)c2ccccc21)C1(OCc2cc(Cl)ccc2Cl)COC1 [Example 179]
Out: 126 to 1000 nM
